Test system: MS2 coat protein
Method Summary: apparent KD of MS2 coat protein; designed switch direction (-1 OFF switch, 1 ON switch): -1; higher = weaker reporter binding
Applied Conditions: input ligand: none
Measured Metric: apparent KD of MS2 coat protein (nM)
# number only, unit nM dropped from output

{"Query Sequence": "UUGCAGUCGUCAGGAUAUAGUAUUACGGCCUUUUAUUUCUUCAUACAUGAGGAUCACCCAUGUCGCUAGAAGGGAUUAUCGAUU [salish99_ExNG2_r04_105] (Eterna round: R96, puzzle: Exclusion NG 2)", "Measured Metric": "apparent KD of MS2 coat protein", "Uom": "nM", "Val": 22.2}

Exam item: Query: apparent KD of MS2 coat protein; subject: CCCUCACAUGAGGAUCACCCAUGUCAGGAUAUCUCAGUGCAUCCACACGGACGCAUCAAGAGAAGGGACAAAAC [Ququ] (Eterna round: R97, puzzle: Exclusion 1)
Marked response: 18.4

Exam item: Query: apparent KD of MS2 coat protein; subject: UAAUAGGCAGGAUAUACAUGAGGAUCACCCAUGUAAAUUUUUCGUUUAACUUGAAUGUGUAGAAGGGCCAUAAA [Ex3 #53] (Eterna round: R97, puzzle: Exclusion 3)
Marked response: 22.6

Exam item: Query: apparent KD of MS2 coat protein; subject: ACUCCUCCUGUUAGGAUAUGCAUCGGGCUUCCGCAGCAGAAGGAACAUGAGGAUCACCCAUGUCAAAUAAAAUC (Eterna round: R97, puzzle: Brourd's mod of Exclusion 4)
Marked response: 26.3

Exam item: Query: apparent KD of MS2 coat protein; subject: UCUGGUCGAGGAUAUACGUGAGGUGCUUCGGCACCAGGUCUACAUGAGGAUCACCCAUGUAGAAGGCGACCAGA [EX2 #61] (Eterna round: R97, puzzle: Exclusion 2)
Marked response: 16.7

====

Tested on: MS2 coat protein
Method Summary: apparent KD of MS2 coat protein; designed switch direction (-1 OFF switch, 1 ON switch): 1; higher = weaker reporter binding
Applied Conditions: Eterna round: R95; input ligand: FMN 200 uM
Measured Metric: apparent KD of MS2 coat protein (µM)
# number only, unit µM dropped from output

The following sequences have reported results that may help.
{"Query Sequence": "AGUCCAGCCUGAGCUGGACAAAAGCAUGUACAUGAGGAUCACCCAUGUUCAUGUACAAGCUUUUUGCUCGUCUUGGA [salish99_208a_r3_103x] (puzzle: Sensor for hsa-mir-208a)", "apparent KD of MS2 coat protein / µM": 0.35}
{"Query Sequence": "AGAGCCGGCACUGAGGAUAUUCAUAAUAAAACAUGAGGAUCACCCAUGUAGGCCAGAAGGCCUUGGGAGAAGGCAGGUCGGCUCU [Mat - Same State 2 - Mod of UCT - D69] (puzzle: Same State 2)", "apparent KD of MS2 coat protein / µM": 0.0177}
{"Query Sequence": "AGUCCAGCAUGAGCUGGACAAAAGCAUGUACAUGAGGAUCACCCAUGUUCAUGUACAAGCUUUUUGCUCGUCUUAAG [Mat - hsa-mir-208a - Mod of JL - 63] (puzzle: Sensor for hsa-mir-208a)", "apparent KD of MS2 coat protein / µM": 0.568}
{"Query Sequence": "CUACUACAUGAGGAUCACCCAUGUUAUAGUGAUGCAGGAUAUGUGUGACCAGAAGAUGAAACAGAAGGGCAAAGAA [JR_SS!_Sub001] (puzzle: Same State 1)", "apparent KD of MS2 coat protein / µM": 0.0314}

Alright, here's another sequence for you.
Exam item: Query: apparent KD of MS2 coat protein; subject: GUAUCUACAGGUUUUUUAGCUCGUCUGAUACAUGAGGAUCACCCAUGUUAUAGCCCUGUGCUUGCGCAGGGCUGAGG [Sensor for hsa-mir-208a ( MOD of Tearor v.4 )] (puzzle: Sensor for hsa-mir-208a)
Marked response: 0.0476
